Hello, the source for this data is patent US12528826B2, in case you need it.

tested_on: Trx-6×His-BCL6 (human BCL6 BTB domain covering amino-acid sequence 5-129) (Homo sapiens)
Construct: made in house
protocol_details: HTRF assay (BCL6 / BCOR peptide)
Format: binding
test_conditions: 1 nM Trx-6×His-BCL6, 300 nM BCOR-AF633 peptide, 2 hours incubation at room temperature
parameter_measured: HTRF avg pIC50

Cc1nccc(Nc2ccc3c(c2)c2c(c(=O)n3C)OCC(F)(F)[C@H](C3CC3)N2)c1Cl ... 7.73
Cn1c(=O)c2c(c3cc(Nc4nc(N5C[C@@H](O)C[C@@H](F)C5)ncc4Cl)ccc31)N[C@@H](C1CC1)C(F)(F)CO2 ... 8.60
Cn1c(=O)c2c(c3cc(Nc4ccnc(Cl)c4F)ccc31)N[C@@H](C1CC1)C(F)(F)CO2 ... 7.78
CC(=O)N[C@H]1C[C@@H](C)CN(c2ncc(Cl)c(Nc3ccc4c(c3)c3c(c(=O)n4C)OCC(F)(F)[C@H](C4CC4)N3)n2)C1 ... 8.60
